The reported numbers originate from patent US20240109891A1.

Quick record of IC50 values for KRAS-WT and SOS1 proteins (Homo sapiens, UniProt Q07889).

Molecule	IC50
COc1cc2c(cc1O[C@H]1CCOC1)c(N[C@H](C)c1cccc(C(F)(F)F)c1)nc1ccnn12 [Example 54]	500 to 5000 nM
Cc1nc(N[C@H](C)c2cccc(C(F)(F)CO)c2)c2cc(N3CC[C@H](O)C3)c3c(cnn3C)c2n1 [Example 43]	< 100 nM
Cc1nc(N[C@H](C)c2cc(N)cc(C(F)(F)F)c2)c2cc(O[C@H]3CCOC3)c3c(cnn3C)c2n1 [Example 37]	< 100 nM
CC(=O)N1CCC(c2cc3c(N[C@H](C)c4cc(C(C)(C)O)cc(C(F)(F)F)c4)nc(C)nc3n3cnnc23)CC1 [Example 13]	> 5000 nM
Cc1nc(N[C@H](C)c2cccc(C(F)(F)CO)c2)c2cc(-c3ccc(=O)n(C)c3)c3nn(C(F)(F)F)cc3c2n1 [Example 34]	100 to 500 nM
C[C@@H](Nc1nc2ccnn2c2cc(=O)n(C3(C)CC3)cc12)c1cccc2c1CCC2(F)F [Example 62]	< 100 nM
